Would you mind telling me the reported amyloid nucleation score of each entry?
Experiment: amyloid nucleation score (Sup35N fusion, yeast selection) (log enrichment); library NNK2; higher = more nucleation; inactive = no reads after selection;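 further: zero at mode of non-aggregating sequences after 7 days selection at 30°C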
I only need the number, thanks.

Could you tell me which amyloid nucleation score is on file for KLHRLTGGHYDPNCDNGPVD ?
3.68

Find the recorded amyloid nucleation score belonging to NLRMVG and report it.
0.182

Need amyloid nucleation score of TGQSKDNQDSNMGVICLFYS , thanks.
4.39

Which value of amyloid nucleation score has been reported for HHAHGFRPIGMCSCISMDPS in the records?
7.87

Requested field: amyloid nucleation score. Item: FHMRFMMVFIRLKTRTKLIL
-0.797

Given the entry YGDSWLFCYVE , report its measured amyloid nucleation score.
-1.12

Data provenance is the supplement of paper PMC12042874.
